- ASSAY SYSTEM: UniProtKB Q14524
- Sequence (Q14524 whole entry): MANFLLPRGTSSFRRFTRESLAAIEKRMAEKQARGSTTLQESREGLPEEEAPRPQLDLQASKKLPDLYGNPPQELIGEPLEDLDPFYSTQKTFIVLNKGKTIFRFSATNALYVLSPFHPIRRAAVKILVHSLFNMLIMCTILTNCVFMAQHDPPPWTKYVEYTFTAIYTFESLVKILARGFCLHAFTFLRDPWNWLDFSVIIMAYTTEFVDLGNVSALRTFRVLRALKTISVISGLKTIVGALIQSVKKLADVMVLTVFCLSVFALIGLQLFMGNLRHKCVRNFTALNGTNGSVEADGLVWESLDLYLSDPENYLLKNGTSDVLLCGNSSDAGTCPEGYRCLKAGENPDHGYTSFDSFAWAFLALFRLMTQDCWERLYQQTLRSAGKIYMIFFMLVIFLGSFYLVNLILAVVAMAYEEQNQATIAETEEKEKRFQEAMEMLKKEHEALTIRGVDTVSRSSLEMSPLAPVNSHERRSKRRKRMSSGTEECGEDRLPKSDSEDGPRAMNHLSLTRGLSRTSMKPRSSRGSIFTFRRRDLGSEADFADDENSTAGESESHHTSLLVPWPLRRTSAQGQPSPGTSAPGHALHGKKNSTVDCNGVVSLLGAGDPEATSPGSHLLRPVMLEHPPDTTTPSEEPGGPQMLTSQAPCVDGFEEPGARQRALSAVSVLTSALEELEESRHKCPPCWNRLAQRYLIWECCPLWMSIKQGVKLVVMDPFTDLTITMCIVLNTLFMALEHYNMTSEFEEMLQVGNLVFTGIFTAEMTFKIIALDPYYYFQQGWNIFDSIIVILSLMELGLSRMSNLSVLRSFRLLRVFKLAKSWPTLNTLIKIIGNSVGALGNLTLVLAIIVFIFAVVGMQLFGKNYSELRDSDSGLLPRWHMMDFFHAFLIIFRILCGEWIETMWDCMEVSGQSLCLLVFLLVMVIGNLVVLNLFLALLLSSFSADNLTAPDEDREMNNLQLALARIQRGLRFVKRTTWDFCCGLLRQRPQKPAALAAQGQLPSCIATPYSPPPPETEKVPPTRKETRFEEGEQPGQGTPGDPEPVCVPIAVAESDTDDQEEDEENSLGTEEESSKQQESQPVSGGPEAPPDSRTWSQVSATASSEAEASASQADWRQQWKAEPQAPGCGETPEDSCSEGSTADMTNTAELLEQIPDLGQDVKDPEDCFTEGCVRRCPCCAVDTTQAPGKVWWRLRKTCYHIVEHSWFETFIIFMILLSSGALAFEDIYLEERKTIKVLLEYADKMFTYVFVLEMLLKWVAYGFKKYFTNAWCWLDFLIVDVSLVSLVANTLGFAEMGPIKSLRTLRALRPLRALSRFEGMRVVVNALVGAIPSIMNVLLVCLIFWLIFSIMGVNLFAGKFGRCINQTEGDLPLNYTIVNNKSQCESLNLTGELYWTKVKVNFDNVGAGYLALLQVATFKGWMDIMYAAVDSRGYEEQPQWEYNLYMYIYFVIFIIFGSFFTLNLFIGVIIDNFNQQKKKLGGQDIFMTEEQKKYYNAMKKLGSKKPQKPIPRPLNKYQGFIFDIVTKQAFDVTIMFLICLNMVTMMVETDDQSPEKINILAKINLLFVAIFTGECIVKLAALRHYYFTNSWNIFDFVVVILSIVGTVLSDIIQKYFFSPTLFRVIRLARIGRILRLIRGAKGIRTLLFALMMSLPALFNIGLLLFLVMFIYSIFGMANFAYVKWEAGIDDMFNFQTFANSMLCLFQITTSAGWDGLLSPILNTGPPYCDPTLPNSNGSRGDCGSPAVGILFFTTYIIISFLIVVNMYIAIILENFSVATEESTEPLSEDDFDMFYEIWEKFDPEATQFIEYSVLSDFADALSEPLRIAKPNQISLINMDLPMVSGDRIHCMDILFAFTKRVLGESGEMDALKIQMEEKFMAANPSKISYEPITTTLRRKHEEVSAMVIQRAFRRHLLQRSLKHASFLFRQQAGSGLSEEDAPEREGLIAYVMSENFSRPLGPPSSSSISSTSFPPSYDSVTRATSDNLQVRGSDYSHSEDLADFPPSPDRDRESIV
- TEST DESCRIPTION: Human Nav1.5 inhibitory activity evaluation (automated patch clamp QPatch16X, HEK293 cells stably expressing human Nav1.5)
- Type: cell-based
- ASSAY SETUP: human Nav1.5, automated patch clamp
PROPERTY NAME: IC50

Cn1cc(-c2ccc3c(c2)C[C@@H](NC(=O)c2cc4n(n2)CC(CCOC(F)F)O4)CO3)cn1 (single isomer, unassigned) [221 (isomer B)] | 1 to 3 µM
O=C(N[C@H]1COc2ccc(Cl)cc2C1)c1cc2n(n1)CCN(CCC(F)(F)F)C2 | < 1 µM
N#Cc1ccc2c(c1)C[C@@H](NC(=O)c1cc3n(n1)CC(CCCOC(F)(F)F)O3)CO2 (single isomer, unassigned) [247 (isomer A)] | 1 to 3 µM

Under UniProtKB Q14524: IC50 value of Cc1ccc(-c2ccc3c(c2)C[C@@H](NC(=O)c2cc4n(n2)CCC(C(F)(F)F)O4)CO3)cn1 (stereo partly shown) ? ≥ 3 µM

Now the compound O=C(N[C@H]1COc2ccc(COCC(F)(F)F)cc2C1)c1cc2n(n1)CCN(CCOC1CCC1)C2 ≥ 3 µM

Now the compound N#Cc1ccc2c(c1)C[C@@H](NC(=O)c1cc3n(n1)CC(CCCOC(F)F)O3)CO2 (single isomer, unassigned) [248 (isomer A)] 1 to 3 µM

Now the compound N#Cc1ccc2c(c1)C[C@@H](NC(=O)c1cc3n(n1)CCCC(c1ccccc1)O3)CO2 (stereo partly shown) ≥ 3 µM
